- study-target: UniProt:P21730
- experiment-description: Anaphylatoxin (C5a) receptor binding Ki determination, 125I-C5a on PMNL membrane fragments
- run-conditions: read-out: Ki (In vitro C5a Receptor Binding Potency)
*1 amine or outer side, *2 acyl side, *3 side chain or, on linkers, in order; H or OH if unused. Where a SMILES comes first, the peptide text is derived from it. [ ]: non-standard residue; d: D form. ξ: configuration not given here. X5 = O=C([C@H](CC1CCCCC1)N(Cc1ccccc1)[*:1])[*:2]; d(hhPhe) = N[C@H](CCCc1ccccc1)C(=O)O; Cha = N[C@@H](CC1CCCCC1)C(=O)O; ξhhPhe = NC(CCCc1ccccc1)C(=O)O; Ahp = NCCCCCCC(=O)O; Ahx = NCCCCCC(=O)O
endpoint: Ki (nM)
The response must be a number in nM with no trailing unit.

q: Reported Ki, compound CC(C)C[C@H](NC(=O)CNC(=O)[C@H](CC1CCCCC1)N(C)C(=O)CCCCCCN)C(=O)NC(CCCc1ccccc1)C(=O)N[C@@H](CCCNC(=N)N)C(=O)O (single isomer, unassigned) [Example 76] : ____
a: 1500

q: Query (compound): CC(C)C[C@H](NC(=O)CNC(=O)[C@H](CC1CCCCC1)N(Cc1ccccc1)C(=O)CCCCCCN)C(=O)N[C@H](CCCc1ccccc1)C(=O)N[C@@H](CCCNC(=N)N)C(=O)O [Example 64] (H-[Ahp][X5]GL[d(hhPhe)]R-OH) ; field requested: Ki
a: 470

q: I am curious: what Ki value has been reported for C[C@H](NC(=O)CNC(=O)[C@H](CC1CCCCC1)NC(=O)CCCCCN)C(=O)NC(CCCc1ccccc1)C(=O)N[C@@H](CCCNC(=N)N)C(=O)O (some centres unmarked) [Example 74] (H-[Ahx][Cha]GA[ξhhPhe]R-OH) ?
a: 91900

q: Requested field: Ki. Item: CC(C)C[C@H](NC(=O)CNC(=O)[C@H](Cc1ccccc1)NC(=O)CCCCCN)C(=O)NC(CCCc1ccccc1)C(=O)N[C@@H](CCCNC(=N)N)C(=O)O (single isomer, unassigned) [Example 125]
a: 830

q: Need Ki of CC(C)C[C@H](NC(=O)CNC(=O)[C@@H](N)Cc1ccccc1)C(=O)N[C@H](CCCc1ccccc1)C(=O)N[C@@H](CCCNC(=N)N)C(=O)O [Example 116] (H-FGL[d(hhPhe)]R-OH) , thanks.
a: 630

====

- study-target: C5a receptor (Homo sapiens, UniProt P21730)
- Sequence (P21730 1-350): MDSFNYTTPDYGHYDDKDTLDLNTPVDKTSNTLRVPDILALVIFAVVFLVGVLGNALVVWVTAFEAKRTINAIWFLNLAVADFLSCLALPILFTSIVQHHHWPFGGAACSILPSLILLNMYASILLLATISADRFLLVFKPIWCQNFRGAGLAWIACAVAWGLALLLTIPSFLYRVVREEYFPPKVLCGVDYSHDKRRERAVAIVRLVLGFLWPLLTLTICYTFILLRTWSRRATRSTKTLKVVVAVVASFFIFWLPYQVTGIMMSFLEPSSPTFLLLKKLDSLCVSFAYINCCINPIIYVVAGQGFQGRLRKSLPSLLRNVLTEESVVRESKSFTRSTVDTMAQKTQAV
- experiment-description: Anaphylatoxin (C5a) receptor binding Ki determination, 125I-C5a on PMNL membrane fragments
- run-conditions: read-out: Ki (In vitro C5a Receptor Binding Potency)
- Description: The membrane-bound radiolabeled C5a was separated from the free radiolabeled C5a by filtration, and the recovered gamma radioactivity was measured. […] Free and membrane-bound ligand were separated by filtration.
Where a SMILES comes first, the peptide text is derived from it. [ ]: non-standard residue; d: D form. The star is where a group is joined. Pentanoyl(5-Ph) = O=C(CCCCc1ccccc1)*; d(hhPhe) = N[C@H](CCCc1ccccc1)C(=O)O; Cha = N[C@@H](CC1CCCCC1)C(=O)O
Answer each item with its documented pKi.
Please report pKi as the negative decimal logarithm of the molar concentration, giving only the number.

q: Find the recorded pKi belonging to CC(C)C[C@H](NC(=O)CNC(=O)[C@H](CCC1CCCCC1)NC(=O)CCCCCN)C(=O)NC(CCCc1ccccc1)C(=O)N[C@@H](CCCNC(=N)N)C(=O)O (single isomer, unassigned) [Example 138] and report it.
a: 6.48

q: Using the record for CC(C)C[C@H](NC(=O)CNC(=O)[C@H](CC1CCCCC1)NC(=O)CCCCc1ccccc1)C(=O)N[C@H](CCCc1ccccc1)C(=O)N[C@@H](CCCNC(=N)N)C(=O)O [Example 62] ({Pentanoyl(5-Ph)}-[Cha]GL[d(hhPhe)]R-OH) , report its pKi.
a: 5.97

====

- study-target: C5a receptor (Homo sapiens)
- experiment-description: Anaphylatoxin (C5a) receptor binding Ki determination, 125I-C5a on PMNL membrane fragments
- run-conditions: read-out: Ki (In vitro C5a Receptor Binding Potency)
- Protocol: The membrane-bound radiolabeled C5a was separated from the free radiolabeled C5a by filtration, and the recovered gamma radioactivity was measured. […] Free and membrane-bound ligand were separated by filtration.
Where a SMILES comes first, the peptide text is derived from it. [ ]: non-standard residue; d: D form. The star is where a group is joined. Cha = N[C@@H](CC1CCCCC1)C(=O)O; Bn = c1ccc(C*)cc1
endpoint: pKi
Hey, just a heads up that pKi is the negative log base 10 of the concentration in molar.

q: Sample CC(C)C[C@H](NC(=O)[C@H](C)NC(=O)[C@H](CC1CCCCC1)NC(=O)[C@@H]1CCCN1C(=O)[C@H](CCCCN)NC(=O)CN)C(=O)N[C@@H](CSCc1ccccc1)C(=O)N[C@@H](CCCNC(=N)N)C(=O)O [Example 108] (H-GKP[Cha]ALC(Bn)R-OH) — what was its pKi?
a: 5.32

q: Form field: reported pKi of CC(C)C[C@H](NC(=O)CNC(=O)[C@H](CC1CCCCC1)N(C)C(=O)CCCCN)C(=O)NC(CCCc1ccccc1)C(=O)N[C@@H](CCCNC(=N)N)C(=O)O (single isomer, unassigned) [Example 37]
a: 5.49

q: Which pKi value belongs to CC(C)C[C@H](NC(=O)CNC(=O)[C@H](CC1CCCCC1)NC(=O)NCc1cccc(CN)c1)C(=O)NC(CCCc1ccccc1)C(=O)N[C@@H](CCCNC(=N)N)C(=O)O (single isomer, unassigned) [Example 141] ?
a: 4.80

q: What does the record list as pKi for CC(C)C[C@H](NC(=O)[C@H](CCCCN)NC(=O)[C@@H](N)CC1CCCCC1)C(=O)NC(CCCc1ccccc1)C(=O)N[C@@H](CCCNC(=N)N)C(=O)O (single isomer, unassigned) [Example 96] ?
a: 4.48

====

- study-target: C5a receptor (Homo sapiens, UniProt P21730)
- experiment-description: Anaphylatoxin (C5a) receptor binding Ki determination, 125I-C5a on PMNL membrane fragments
- run-conditions: read-out: Ki (In vitro C5a Receptor Binding Potency)
- Experimental: The membrane-bound radiolabeled C5a was separated from the free radiolabeled C5a by filtration, and the recovered gamma radioactivity was measured. […] Free and membrane-bound ligand were separated by filtration.
endpoint: pKi
By convention, pKi is the negative base-10 log of a molar concentration.

q: pKi for CC(C)C[C@H](NC(=O)[C@H](C)NC(=O)[C@H](CC1CCCCC1)NC(=O)CNC(=O)CCCCCN)C(=O)NC(CCCc1ccccc1)C(=O)N[C@@H](CCCNC(=N)N)C(=O)O (single isomer, unassigned) [Example 32] ?
a: 5.00

q: Consider the compound CC(C)[C@H](NC(=O)CNC(=O)[C@H](CC1CCCCC1)NC(=O)CCCCCN)C(=O)NC(CCCc1ccccc1)C(=O)N[C@@H](CCCNC(=N)N)C(=O)O (single isomer, unassigned) [Example 102] and give its measured pKi.
a: 4.66

q: Looking for the measured pKi of CC(C)[C@H](NC(=O)CNC(=O)[C@H](CC1CCCCC1)NC(=O)CCCCCN)C(=O)NC(CCCc1ccccc1)C(=O)N[C@@H](CCCNC(=N)N)C(=O)O (single isomer, unassigned) [Example 101] , can you help?
a: 4.28

q: Which pKi is reported for this compound? CC(C)C[C@H](NC(=O)CCNC(=O)[C@H](CC1CCCCC1)NC(=O)CCCCCN)C(=O)NC(CCCc1ccccc1)C(=O)N[C@@H](CCCNC(=N)N)C(=O)O (single isomer, unassigned) [Example 115]
a: 5.25

q: Data request, read-out pKi, for CC(C)C[C@H](NC(=O)CNC(=O)[C@H](CC1CCCCC1)NC(=O)CCN)C(=O)NC(CCCc1ccccc1)C(=O)N[C@@H](CCCNC(=N)N)C(=O)O (single isomer, unassigned) [Example 85]
a: 5.70
